Measured values drawn from ChEMBL document CHEMBL3991601 for this set.

Parameter 'readout' = Kd; parameter 'system' = Cyclin-dependent kinase 13 (Homo sapiens). Further: in the data inactive means no Kd found up to 30 µM.
Sequence (Q14004 whole entry): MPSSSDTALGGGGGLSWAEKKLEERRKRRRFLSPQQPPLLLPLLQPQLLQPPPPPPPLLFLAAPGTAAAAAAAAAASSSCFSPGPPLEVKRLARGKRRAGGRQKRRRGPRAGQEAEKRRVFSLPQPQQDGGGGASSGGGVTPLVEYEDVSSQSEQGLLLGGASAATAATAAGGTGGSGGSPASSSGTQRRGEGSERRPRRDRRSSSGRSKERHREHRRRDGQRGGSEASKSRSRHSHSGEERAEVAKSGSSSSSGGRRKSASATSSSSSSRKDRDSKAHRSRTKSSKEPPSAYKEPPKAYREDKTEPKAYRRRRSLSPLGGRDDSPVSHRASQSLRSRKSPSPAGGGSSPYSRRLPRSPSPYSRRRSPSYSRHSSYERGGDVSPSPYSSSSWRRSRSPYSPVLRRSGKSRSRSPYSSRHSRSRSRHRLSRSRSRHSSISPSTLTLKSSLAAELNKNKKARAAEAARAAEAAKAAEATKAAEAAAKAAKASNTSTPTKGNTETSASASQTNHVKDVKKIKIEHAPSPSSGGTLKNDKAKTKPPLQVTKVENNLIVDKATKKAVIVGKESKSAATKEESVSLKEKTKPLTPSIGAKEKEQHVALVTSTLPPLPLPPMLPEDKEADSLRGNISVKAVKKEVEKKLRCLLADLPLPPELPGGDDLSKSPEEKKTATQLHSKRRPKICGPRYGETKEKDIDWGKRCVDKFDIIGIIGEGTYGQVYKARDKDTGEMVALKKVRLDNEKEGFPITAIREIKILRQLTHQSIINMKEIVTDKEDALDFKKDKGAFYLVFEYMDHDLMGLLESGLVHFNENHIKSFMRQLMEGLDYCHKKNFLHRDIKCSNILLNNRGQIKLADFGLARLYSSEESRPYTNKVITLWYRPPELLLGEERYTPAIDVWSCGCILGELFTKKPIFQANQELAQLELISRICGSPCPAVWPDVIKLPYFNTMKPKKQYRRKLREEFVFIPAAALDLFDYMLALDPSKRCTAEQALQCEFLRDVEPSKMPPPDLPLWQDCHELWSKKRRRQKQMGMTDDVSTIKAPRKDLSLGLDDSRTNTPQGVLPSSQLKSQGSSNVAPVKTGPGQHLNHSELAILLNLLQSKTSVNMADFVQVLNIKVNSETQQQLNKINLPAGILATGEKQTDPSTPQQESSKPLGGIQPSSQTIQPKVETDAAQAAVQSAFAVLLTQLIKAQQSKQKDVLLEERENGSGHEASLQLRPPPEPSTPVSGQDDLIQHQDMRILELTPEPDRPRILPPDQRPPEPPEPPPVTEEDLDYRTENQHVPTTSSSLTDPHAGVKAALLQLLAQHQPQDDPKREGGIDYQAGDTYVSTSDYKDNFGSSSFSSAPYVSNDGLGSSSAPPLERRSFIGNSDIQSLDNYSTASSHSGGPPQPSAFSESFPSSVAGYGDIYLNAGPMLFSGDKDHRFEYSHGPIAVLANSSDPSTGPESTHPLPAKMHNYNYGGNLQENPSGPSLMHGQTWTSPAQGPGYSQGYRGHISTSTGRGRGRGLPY
Calls of active or inactive are those of the source.

[
  {
    "COMPOUND": "COc1cc2ncnc(Oc3cccc(NC(=O)Nc4cc(C(C)(C)C(F)(F)F)on4)c3)c2cc1OC [CEP-32496]",
    "TESTED_TARGET": "Cyclin-dependent kinase 13 (Homo sapiens)",
    "Kd": "> 30 µM (inactive)"
  },
  {
    "COMPOUND": "Cc1nc2cc(-n3ncc(C(=O)c4cc5ccccc5[nH]4)c3N)ccc2[nH]1 [FGFR INHIBITOR DEBIO 1347]",
    "TESTED_TARGET": "Cyclin-dependent kinase 13 (Homo sapiens)",
    "Kd": "> 30 µM (inactive)"
  },
  {
    "COMPOUND": "COc1ncc(-c2ccc3nccc(-c4ccnnc4)c3c2)cc1NS(=O)(=O)c1ccc(F)cc1F [OMIPALISIB]",
    "TESTED_TARGET": "Cyclin-dependent kinase 13 (Homo sapiens)",
    "Kd": "> 30 µM (inactive)"
  }
]

###

TESTED_TARGET: Rab-like protein 3 (Homo sapiens); further: in the data inactive means no Kd found up to 30 µM
Sequence (Q5HYI8 whole entry): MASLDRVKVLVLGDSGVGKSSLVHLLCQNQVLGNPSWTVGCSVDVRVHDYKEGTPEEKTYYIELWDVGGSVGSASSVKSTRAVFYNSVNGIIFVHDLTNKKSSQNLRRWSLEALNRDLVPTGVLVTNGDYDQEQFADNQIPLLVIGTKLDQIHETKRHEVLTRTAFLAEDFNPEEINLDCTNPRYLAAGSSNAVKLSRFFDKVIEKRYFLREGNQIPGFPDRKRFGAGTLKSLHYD
Calls of active or inactive are those of the source.
Entries and their Kd values follow.

[
  {
    "SMI": "COc1ccc(S(=O)(=O)N(C(C)=O)c2ccccc2/C=C/c2cc[n+]([O-])cc2)cc1",
    "TESTED_TARGET": "Rab-like protein 3 (Homo sapiens)",
    "Kd": "> 30 µM (inactive)"
  },
  {
    "SMI": "Cn1cc(-c2cnn3c(N)c(Br)c([C@@H]4CCCNC4)nc23)cn1",
    "TESTED_TARGET": "Rab-like protein 3 (Homo sapiens)",
    "Kd": "> 30 µM (inactive)"
  },
  {
    "SMI": "Cc1nc2cc(-n3ncc(C(=O)c4cc5ccccc5[nH]4)c3N)ccc2[nH]1",
    "TESTED_TARGET": "Rab-like protein 3 (Homo sapiens)",
    "Kd": "> 30 µM (inactive)"
  }
]

###

TESTED_TARGET: MAP kinase-activated protein kinase 5 (Homo sapiens, UniProt Q8IW41); further: in the data inactive means no Kd found up to 30 µM
Sequence (Q8IW41 whole entry): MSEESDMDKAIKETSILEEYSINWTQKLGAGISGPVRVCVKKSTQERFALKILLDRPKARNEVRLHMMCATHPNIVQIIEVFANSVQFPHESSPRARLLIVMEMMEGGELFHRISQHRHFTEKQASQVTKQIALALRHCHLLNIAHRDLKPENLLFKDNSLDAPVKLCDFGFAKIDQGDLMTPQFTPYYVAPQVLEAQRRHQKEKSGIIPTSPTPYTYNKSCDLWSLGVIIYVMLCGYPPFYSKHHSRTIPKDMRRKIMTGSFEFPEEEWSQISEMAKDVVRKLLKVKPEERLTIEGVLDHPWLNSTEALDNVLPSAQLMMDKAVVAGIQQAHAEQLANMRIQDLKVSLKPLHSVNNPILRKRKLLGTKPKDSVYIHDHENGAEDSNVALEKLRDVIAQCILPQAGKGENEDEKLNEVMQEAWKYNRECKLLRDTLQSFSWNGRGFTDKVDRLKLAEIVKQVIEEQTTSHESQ
Activity calls are given as the source filed them.
Outcome codes: true for active, false for inactive

[
  {
    "SMI": "CN1CCN(CCOc2cc(OC3CCOCC3)c3c(Nc4c(Cl)ccc5c4OCO5)ncnc3c2)CC1",
    "TESTED_TARGET": "MAP kinase-activated protein kinase 5 (Homo sapiens, UniProt Q8IW41)",
    "CLASS": "false"
  },
  {
    "SMI": "COc1ccc(S(=O)(=O)N(C(C)=O)c2ccccc2/C=C/c2cc[n+]([O-])cc2)cc1",
    "TESTED_TARGET": "MAP kinase-activated protein kinase 5 (Homo sapiens, UniProt Q8IW41)",
    "CLASS": "false"
  },
  {
    "SMI": "Cc1csc(-c2nnc(Nc3ccc(Oc4ncccc4-c4ccnc(N)n4)cc3)c3ccccc23)c1",
    "TESTED_TARGET": "MAP kinase-activated protein kinase 5 (Homo sapiens, UniProt Q8IW41)",
    "CLASS": "false"
  },
  {
    "SMI": "CC(C)c1cc(CNc2nc(Nc3cc(C4CC4)[nH]n3)cc(N3CCN(C)CC3)n2)on1",
    "TESTED_TARGET": "MAP kinase-activated protein kinase 5 (Homo sapiens, UniProt Q8IW41)",
    "CLASS": "false"
  },
  {
    "SMI": "O=C(Nc1c[nH]nc1-c1nc2cc(CN3CCOCC3)ccc2[nH]1)NC1CC1",
    "TESTED_TARGET": "MAP kinase-activated protein kinase 5 (Homo sapiens, UniProt Q8IW41)",
    "CLASS": "true"
  },
  {
    "SMI": "CNC(=O)c1cccc2cc(Oc3ccnc4cc(OCC5(N)CC5)c(OC)cc34)ccc12",
    "TESTED_TARGET": "MAP kinase-activated protein kinase 5 (Homo sapiens, UniProt Q8IW41)",
    "CLASS": "false"
  },
  {
    "SMI": "Cc1cccc(-c2nn3c(c2-c2ccnc4ccc(C(N)=O)cc24)CCC3)n1",
    "TESTED_TARGET": "MAP kinase-activated protein kinase 5 (Homo sapiens, UniProt Q8IW41)",
    "CLASS": "false"
  },
  {
    "SMI": "NC1(c2ccc(-c3nc4ccn5c(=O)[nH]nc5c4cc3-c3ccccc3)cc2)CCC1",
    "TESTED_TARGET": "MAP kinase-activated protein kinase 5 (Homo sapiens, UniProt Q8IW41)",
    "CLASS": "false"
  }
]
